Data origin, for the record: paper PMC9090415

# Target or system: bacteriophage T4 DNA polymerase (Enterobacteria phage T4)
# Construct: made in house
# Sequence (P04415 whole entry): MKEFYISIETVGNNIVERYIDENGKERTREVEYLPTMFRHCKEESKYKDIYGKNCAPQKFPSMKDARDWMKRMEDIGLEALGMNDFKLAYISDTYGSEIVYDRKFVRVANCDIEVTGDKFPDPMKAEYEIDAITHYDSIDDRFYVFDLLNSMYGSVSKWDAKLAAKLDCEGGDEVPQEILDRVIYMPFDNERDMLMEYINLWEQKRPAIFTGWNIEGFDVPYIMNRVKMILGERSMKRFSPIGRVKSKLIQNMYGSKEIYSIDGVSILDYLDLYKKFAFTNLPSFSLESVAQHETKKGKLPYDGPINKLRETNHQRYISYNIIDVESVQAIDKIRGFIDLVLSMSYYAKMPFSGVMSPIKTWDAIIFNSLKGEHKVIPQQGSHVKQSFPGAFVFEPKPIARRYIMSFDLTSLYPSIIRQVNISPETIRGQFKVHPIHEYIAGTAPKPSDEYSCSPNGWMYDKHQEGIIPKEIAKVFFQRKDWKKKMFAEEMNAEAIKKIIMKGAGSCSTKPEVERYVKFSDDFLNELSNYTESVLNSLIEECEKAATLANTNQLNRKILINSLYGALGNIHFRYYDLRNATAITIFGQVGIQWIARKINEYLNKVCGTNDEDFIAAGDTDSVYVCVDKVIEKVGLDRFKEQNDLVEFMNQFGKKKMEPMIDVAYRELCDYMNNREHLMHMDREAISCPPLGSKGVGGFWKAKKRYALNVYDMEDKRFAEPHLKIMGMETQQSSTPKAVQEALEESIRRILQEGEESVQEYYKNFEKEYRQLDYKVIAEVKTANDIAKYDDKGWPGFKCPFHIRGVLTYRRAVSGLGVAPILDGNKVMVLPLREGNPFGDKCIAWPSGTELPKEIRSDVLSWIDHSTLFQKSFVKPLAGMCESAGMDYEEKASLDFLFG
# Method notes: Counter-screen against bacteriophage T4 DNA polymerase
# Format: biochemical
# Condition label: DRC-2; read at 40'; concentration 5
Exercise: state measured % inhibition T4 40' 5 for each of the compounds provided.
Answers are plain numbers, in %.

Solved entries (count: 7):
Cc1ccsc1Cn1c(C)ccc1C [Molecule 70, Cc1ccsc1Cn1c(C)ccc1C] :: -2
COc1ccc(C2CC(c3ccc(Cl)cc3Cl)Nc3nc(N)nn32)cc1OC (centres unmarked) [Molecule 43] :: -2.79
CC(=O)OCC1=C(C(=O)[O-])N2C(=O)[C@@H](NC(=O)Cc3cccs3)[C@H]2SC1.[Na+] [Molecule 73] :: 0.491
CC(C)CC(C(=O)O)N1C(=O)C2C3C=CC(C2C1=O)C1C(=O)N(C(CC(C)C)C(=O)O)C(=O)C31 (centres unmarked) [KU0193449] :: 4.24
O=C(c1ccccc1)N1CCc2c(nc3cc(-c4ccccc4)[nH]n3c2=O)C1 [Molecule 30] :: -13
CC(=O)Nc1cc(C(=O)c2cccs2)nn(-c2ccc(Cl)cc2)c1=O [KU0267905] :: 7.5
Cn1nc(-c2nnc(-c3ccccc3F)o2)c2c1CCN(C(=O)c1ccccc1Cl)C2 [Molecule 34] :: -3.75

Please find the next compound below.
-- ask Which % inhibition T4 40' 5 value is on record for Nc1cc(Oc2ccc(O)c(N)c2)ccc1O [KU0034728] ?
-- reply -11
